target: EGFR del19/C797S (Homo sapiens, UniProt P00533, C797S/DEL746-750); test: Biochemical EGFR kinase assay (Lance Ultra TR-FRET), double mutant del19/C797S; settings: Km ATP; read-out: IC50 del19/C797S (nM) Km ATP
Sequence (P00533 with tags, fused parts or gaps DEL746-750/C797S): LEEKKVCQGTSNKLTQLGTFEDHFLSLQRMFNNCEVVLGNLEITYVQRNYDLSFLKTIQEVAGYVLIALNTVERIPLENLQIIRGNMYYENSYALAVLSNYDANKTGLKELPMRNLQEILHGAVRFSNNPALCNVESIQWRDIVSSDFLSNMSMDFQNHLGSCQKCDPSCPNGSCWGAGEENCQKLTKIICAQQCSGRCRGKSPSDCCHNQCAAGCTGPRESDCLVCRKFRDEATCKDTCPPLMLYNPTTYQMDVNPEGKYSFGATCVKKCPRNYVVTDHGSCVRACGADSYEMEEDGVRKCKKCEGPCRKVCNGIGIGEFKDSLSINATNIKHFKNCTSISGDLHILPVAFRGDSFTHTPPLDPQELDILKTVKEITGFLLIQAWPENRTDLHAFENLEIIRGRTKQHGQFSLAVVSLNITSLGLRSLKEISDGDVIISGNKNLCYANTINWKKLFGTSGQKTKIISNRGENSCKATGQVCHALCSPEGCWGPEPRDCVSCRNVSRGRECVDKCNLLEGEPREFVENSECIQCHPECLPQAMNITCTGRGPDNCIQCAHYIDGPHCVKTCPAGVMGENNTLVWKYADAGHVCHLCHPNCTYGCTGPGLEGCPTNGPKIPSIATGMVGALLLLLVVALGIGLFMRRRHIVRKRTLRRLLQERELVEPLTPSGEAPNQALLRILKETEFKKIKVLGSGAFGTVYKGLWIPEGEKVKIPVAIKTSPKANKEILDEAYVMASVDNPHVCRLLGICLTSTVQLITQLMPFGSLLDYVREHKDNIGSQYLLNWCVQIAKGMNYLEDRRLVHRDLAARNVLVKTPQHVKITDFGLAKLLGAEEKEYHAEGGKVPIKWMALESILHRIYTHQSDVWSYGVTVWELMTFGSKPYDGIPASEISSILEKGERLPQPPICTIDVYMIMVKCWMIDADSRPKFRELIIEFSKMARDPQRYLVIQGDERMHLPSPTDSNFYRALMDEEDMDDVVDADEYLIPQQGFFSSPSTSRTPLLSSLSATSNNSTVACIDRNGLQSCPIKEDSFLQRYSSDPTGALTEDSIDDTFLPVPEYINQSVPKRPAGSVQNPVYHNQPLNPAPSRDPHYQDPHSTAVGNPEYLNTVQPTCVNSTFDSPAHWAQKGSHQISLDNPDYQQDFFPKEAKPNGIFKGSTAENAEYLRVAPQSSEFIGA
QUANTITY: IC50 (nM)
Give just the number in nM; leave the unit off.

For EGFR del19/C797S (Homo sapiens, UniProt P00533, C797S/DEL746-750), give IC50 of the listed compound: Cc1cnn(-c2cnc(Nc3ccnc(-c4cnn(S(=O)(=O)C5CC5)c4)n3)cc2N[C@H]2CC[C@@](C)(O)CC2)c1 [Example 184]
4.8

For EGFR del19/C797S (Homo sapiens, UniProt P00533, C797S/DEL746-750), give IC50 of the listed compound: O=S(=O)(C1CC1)n1cc(-c2nccc(Nc3cc(NCC4CCCC(O)C4)c(-c4ccn(C(F)F)n4)cn3)n2)cn1 (stereo not shown) [Example 32]
1

For EGFR del19/C797S (Homo sapiens, UniProt P00533, C797S/DEL746-750), give IC50 of the listed compound: C[C@]1(O)CC[C@@H](Nc2cc(Nc3ccnc(-c4cnn(S(=O)(=O)C5CC5)c4)n3)ncc2-c2ccn(C3COC3)n2)CC1 [Example 292]
0.4

For EGFR del19/C797S (Homo sapiens, UniProt P00533, C797S/DEL746-750), give IC50 of the listed compound: O=S(=O)(C1CC1)n1cc(-c2nccc(Nc3cc(N[C@H]4CC[C@@H](CC(F)F)CC4)c(-c4ccn(C(F)F)n4)cn3)n2)cn1 [Example 185]
51.5

For EGFR del19/C797S (Homo sapiens, UniProt P00533, C797S/DEL746-750), give IC50 of the listed compound: CN(C)CCCn1ccc(-c2cnc(Nc3ccnc(-c4cnn(S(=O)(=O)C5CC5)c4)n3)cc2N[C@H]2CC[C@@H](C(C)(C)O)CC2)n1 [Example 278]
0.6

For EGFR del19/C797S (Homo sapiens, UniProt P00533, C797S/DEL746-750), give IC50 of the listed compound: C[C@]1(O)CC[C@@H](Nc2cc(Nc3ccnc(-c4cnn(CC(F)F)c4)n3)ncc2-n2ccc(C(F)F)n2)CC1 [Example 177]
1320

For EGFR del19/C797S (Homo sapiens, UniProt P00533, C797S/DEL746-750), give IC50 of the listed compound: O=S(=O)(C1CC1)n1cc(-c2nccc(Nc3cc(NN4CCC(O)CC4)c(-c4ccn(C(F)F)n4)cn3)n2)cn1 [Example 153]
1.3

For EGFR del19/C797S (Homo sapiens, UniProt P00533, C797S/DEL746-750), give IC50 of the listed compound: Cn1nc(-c2cnc(Nc3ccnc(-c4cnn(S(=O)(=O)C5CC5)c4)n3)cc2N[C@H]2CC[C@@H](CO)CC2)cc1C(F)(F)F [Example 253]
2.3

For EGFR del19/C797S (Homo sapiens, UniProt P00533, C797S/DEL746-750), give IC50 of the listed compound: CN(C)CC1(C)CCC(Nc2cc(Nc3ccnc(-c4cnn(S(=O)(=O)C5CC5)c4)n3)ncc2-c2ccn(CC(F)(F)F)n2)CC1 (stereo not shown) [Example 267]
6.7

For EGFR del19/C797S (Homo sapiens, UniProt P00533, C797S/DEL746-750), give IC50 of the listed compound: O=S(=O)(C1CC1)n1cc(-c2nccc(Nc3cc(NC4CCC(F)(CO)CC4)c(-c4ccn(C(F)F)n4)cn3)n2)cn1 (stereo not shown) [Example 190]
9.1

For EGFR del19/C797S (Homo sapiens, UniProt P00533, C797S/DEL746-750), give IC50 of the listed compound: C[C@]1(O)CC[C@@H](Nc2cc(Nc3ccnc(-c4cnn(S(=O)(=O)N5CCCC5)c4)n3)ncc2-c2ccn(C(F)F)n2)CC1 [Example 323]
1060

For EGFR del19/C797S (Homo sapiens, UniProt P00533, C797S/DEL746-750), give IC50 of the listed compound: O=S(=O)(C1CC1)n1cc(-c2nccc(Nc3cc(N[C@H]4CC[C@@H](F)CC4)c(-c4ccn(CCC(F)(F)F)n4)cn3)n2)cn1 [Example 306]
171

For EGFR del19/C797S (Homo sapiens, UniProt P00533, C797S/DEL746-750), give IC50 of the listed compound: O=S(=O)(C1CC1)n1cc(-c2nccc(Nc3cc(N[C@H]4CC[C@@H](C(F)F)CC4)c(-c4ccn(C(F)F)n4)cn3)n2)cn1 [Example 157]
125

====

molecular target: EGFR wildtype (WT) (Homo sapiens, UniProt P00533); assay: Biochemical EGFR kinase assay (Lance Ultra TR-FRET), wildtype; conditions: Km ATP; read-out: IC50 WT (nM) Km ATP
Sequence (P00533 25-1210): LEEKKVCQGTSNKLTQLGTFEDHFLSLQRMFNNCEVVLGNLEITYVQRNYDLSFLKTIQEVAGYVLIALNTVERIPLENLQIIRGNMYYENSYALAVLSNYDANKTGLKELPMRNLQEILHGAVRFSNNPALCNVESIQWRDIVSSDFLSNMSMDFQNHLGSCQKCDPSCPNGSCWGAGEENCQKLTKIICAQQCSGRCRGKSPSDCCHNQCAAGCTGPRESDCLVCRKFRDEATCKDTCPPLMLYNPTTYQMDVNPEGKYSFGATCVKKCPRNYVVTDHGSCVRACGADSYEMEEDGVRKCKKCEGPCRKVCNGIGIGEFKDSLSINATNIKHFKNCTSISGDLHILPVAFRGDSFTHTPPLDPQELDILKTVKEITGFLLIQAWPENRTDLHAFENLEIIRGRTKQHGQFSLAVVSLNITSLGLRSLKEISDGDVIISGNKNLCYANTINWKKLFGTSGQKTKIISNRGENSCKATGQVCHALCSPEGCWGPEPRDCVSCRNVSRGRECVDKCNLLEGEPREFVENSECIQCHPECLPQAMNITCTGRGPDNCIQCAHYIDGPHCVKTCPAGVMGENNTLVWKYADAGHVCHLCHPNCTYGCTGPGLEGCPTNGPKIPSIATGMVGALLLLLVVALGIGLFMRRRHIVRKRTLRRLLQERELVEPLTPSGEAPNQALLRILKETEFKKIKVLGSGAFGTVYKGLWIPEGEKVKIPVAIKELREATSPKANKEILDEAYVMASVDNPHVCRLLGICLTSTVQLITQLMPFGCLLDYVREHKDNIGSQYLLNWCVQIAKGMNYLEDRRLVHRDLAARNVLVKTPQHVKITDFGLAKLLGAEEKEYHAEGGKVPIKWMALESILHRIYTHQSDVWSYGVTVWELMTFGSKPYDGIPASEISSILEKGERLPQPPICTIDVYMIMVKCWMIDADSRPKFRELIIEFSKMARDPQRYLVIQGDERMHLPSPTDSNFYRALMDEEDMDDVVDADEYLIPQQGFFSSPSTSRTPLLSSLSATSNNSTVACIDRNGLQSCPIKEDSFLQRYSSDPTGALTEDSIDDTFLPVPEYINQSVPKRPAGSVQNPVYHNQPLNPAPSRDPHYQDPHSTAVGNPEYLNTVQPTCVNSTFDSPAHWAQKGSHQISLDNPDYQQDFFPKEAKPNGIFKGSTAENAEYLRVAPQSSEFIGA
What log10 IC50 was measured for each of the following?
Give log10 of IC50, with IC50 taken in nM.

Read the entry C[C@]1(O)CC[C@@H](Nc2cc(Nc3ccnc(-c4ccc(F)nc4F)n3)ncc2-c2ccn(C(F)F)n2)CC1 and write its reported log10 IC50.
3.30

Read the entry CN(C)CC1(C)CCC(Nc2cc(Nc3ccnc(-c4cnn(S(=O)(=O)C5CC5)c4)n3)ncc2-c2ccn(CC(F)(F)F)n2)CC1 (stereo not shown) and write its reported log10 IC50.
1.46

Read the entry C[C@]1(O)CC[C@@H](Nc2cc(Nc3ccnc(-c4cnn(CC(F)(F)F)c4)n3)ncc2-c2ccn(C(F)F)n2)CC1 and write its reported log10 IC50.
3.25

Read the entry CN(C)C[C@H]1CC[C@@H](Nc2cc(Nc3ccnc(-c4cnn(S(=O)(=O)C5CC5)c4)n3)ncc2-c2cc3n(n2)CCCC3)CC1 and write its reported log10 IC50.
-0.40

Read the entry Cn1nc(-c2cnc(Nc3ccnc(-c4cnn(S(=O)(=O)C5CC5)c4)n3)cc2N[C@H]2CC[C@@](C)(O)CC2)cc1N1CCC(F)(F)CC1 and write its reported log10 IC50.
1.32

Read the entry O=S(=O)(C1CC1)n1cc(-c2nccc(Nc3cc(NN4CCC(O)CC4)c(-c4ccn(C(F)F)n4)cn3)n2)cn1 and write its reported log10 IC50.
0.59

Read the entry C[C@]1(O)CC[C@@H](Nc2cc(Nc3ccnc(-c4cnn(S(=O)(=O)C5CC5)c4)n3)ncc2-n2ccc(OC(F)F)n2)CC1 and write its reported log10 IC50.
2.45

Read the entry O=S(=O)(C1CC1)n1cc(-c2nccc(Nc3cc(NC4CCN(CCF)CC4)c(-c4ccn(C(F)F)n4)cn3)n2)cn1 and write its reported log10 IC50.
2.66

Read the entry O=S(=O)(C1CC1)n1cc(-c2nccc(Nc3cc(N[C@H]4CC[C@H](CO)CC4)c(-c4ccn(C(F)F)n4)cn3)n2)cn1 and write its reported log10 IC50.
1.93

Read the entry O=S(=O)(C1CC1)n1cc(-c2nccc(Nc3cc(NC[C@H]4CC[C@H](O)CC4)c(-c4ccn(C(F)F)n4)cn3)n2)cn1 and write its reported log10 IC50.
1.02

Read the entry O=S(=O)(C1CC1)n1cc(-c2nccc(Nc3cc(N[C@H]4CCC[C@H](CO)C4)c(-c4ccn(C(F)F)n4)cn3)n2)cn1 and write its reported log10 IC50.
1.03

Read the entry O=S(=O)(C1CC1)n1cc(-c2nccc(Nc3cc(N[C@H]4CC[C@@H](F)CC4)c(-c4ccn(CCC(F)(F)F)n4)cn3)n2)cn1 and write its reported log10 IC50.
3.11

Read the entry COCC#Cc1nccc(Nc2cc(NC3CCC(C)(O)CC3)c(-c3ccn(C(F)F)n3)cn2)n1 (stereo not shown) and write its reported log10 IC50.
2.99

====

target: EGFR L858R/C797S (Homo sapiens, UniProt P00533, C797S/L858R); experiment: Biochemical EGFR kinase assay (Lance Ultra TR-FRET), double mutant L858R/C797S; conditions: read-out: IC50 L858R/C797S (nM) 100 μM ATP; 100 μM ATP
Sequence (P00533 25-1210 C797S/L858R): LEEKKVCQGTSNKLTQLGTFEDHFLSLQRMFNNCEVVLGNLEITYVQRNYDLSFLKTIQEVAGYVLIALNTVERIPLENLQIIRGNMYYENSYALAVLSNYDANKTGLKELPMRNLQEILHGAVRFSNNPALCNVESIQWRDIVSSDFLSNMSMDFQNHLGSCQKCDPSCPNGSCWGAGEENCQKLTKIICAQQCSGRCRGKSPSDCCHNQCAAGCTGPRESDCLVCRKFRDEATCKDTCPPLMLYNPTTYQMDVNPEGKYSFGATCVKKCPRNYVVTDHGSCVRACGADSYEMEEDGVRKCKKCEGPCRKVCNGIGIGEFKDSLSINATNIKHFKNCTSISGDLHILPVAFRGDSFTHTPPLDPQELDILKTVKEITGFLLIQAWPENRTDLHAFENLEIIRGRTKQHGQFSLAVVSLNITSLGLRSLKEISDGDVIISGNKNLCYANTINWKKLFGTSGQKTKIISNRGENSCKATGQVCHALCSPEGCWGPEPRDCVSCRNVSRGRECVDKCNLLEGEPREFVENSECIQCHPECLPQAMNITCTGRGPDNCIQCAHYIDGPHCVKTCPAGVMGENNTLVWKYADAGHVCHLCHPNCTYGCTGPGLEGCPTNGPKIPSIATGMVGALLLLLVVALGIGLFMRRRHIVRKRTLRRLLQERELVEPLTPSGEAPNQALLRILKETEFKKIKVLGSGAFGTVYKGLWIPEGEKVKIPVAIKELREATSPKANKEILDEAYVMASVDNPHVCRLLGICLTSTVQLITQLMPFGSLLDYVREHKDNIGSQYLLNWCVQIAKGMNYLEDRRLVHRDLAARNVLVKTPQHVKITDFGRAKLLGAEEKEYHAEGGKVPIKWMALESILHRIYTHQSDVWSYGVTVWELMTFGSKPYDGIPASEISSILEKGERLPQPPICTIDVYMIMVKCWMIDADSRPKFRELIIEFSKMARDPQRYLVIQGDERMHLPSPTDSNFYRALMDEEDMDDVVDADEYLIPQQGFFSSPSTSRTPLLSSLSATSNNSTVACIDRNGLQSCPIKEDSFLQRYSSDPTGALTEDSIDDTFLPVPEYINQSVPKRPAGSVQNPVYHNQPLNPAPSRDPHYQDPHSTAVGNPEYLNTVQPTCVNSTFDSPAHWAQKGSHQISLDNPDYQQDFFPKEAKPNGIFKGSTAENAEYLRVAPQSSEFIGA
QUANTITY: IC50 (nM)
Give just the number in nM; leave the unit off.

Read the entry CN[C@H]1CC[C@@H](Nc2cc(Nc3ccnc(-c4cnn(S(=O)(=O)C5CC5)c4)n3)ncc2-c2ccn(C)n2)CC1 and write its reported IC50.
3.1

Read the entry O=S(=O)(C1CC1)n1cc(-c2nccc(Nc3cc(N[C@H]4CC[C@@H](NCCF)CC4)c(-c4csc(C(F)(F)F)n4)cn3)n2)cn1 and write its reported IC50.
42.2

Read the entry CC(C)(O)[C@H]1CC[C@@H](Nc2cc(Nc3ccnc(-c4cnn(S(=O)(=O)C5CC5)c4)n3)ncc2-c2csc(C(F)(F)F)n2)CC1 and write its reported IC50.
278

====

What log10 IC50 was measured for each of the following?
molecular target: EGFR wildtype (WT) (Homo sapiens); assay: Biochemical EGFR kinase assay (Lance Ultra TR-FRET), wildtype; settings: IC50 WT (nM) 100 μM ATP, 100 μM ATP
Give log10 of IC50, with IC50 taken in nM.

Read the entry CN(C)CC1(C)CCC(Nc2cc(Nc3ccnc(-c4cnn(S(=O)(=O)C5CC5)c4)n3)ncc2-c2ccn(C)n2)CC1 (stereo not shown) and write its reported log10 IC50.
3.56

Read the entry CN(C)C[C@H]1CC[C@H](CNc2cc(Nc3ccnc(-c4cnn(S(=O)(=O)C5CC5)c4)n3)ncc2-c2ccn(C(F)F)n2)CC1 and write its reported log10 IC50.
2.76

Read the entry C[C@]1(O)CC[C@@H](Nc2cc(Nc3ccnc(-c4cnn(S(=O)(=O)C5CC5)c4)n3)ncc2-c2ccn(C3COC3)n2)CC1 and write its reported log10 IC50.
3.84

Read the entry O=S(=O)(C1CC1)n1cc(-c2nccc(Nc3cc(N[C@H]4CC[C@@H](CO)CC4)c(-c4ccn(CC(F)F)n4)cn3)n2)cn1 and write its reported log10 IC50.
2.99

Read the entry CC(C)(O)c1nc(-c2cnc(Nc3ccnc(-c4cnn(S(=O)(=O)C5CC5)c4)n3)cc2N[C@H]2CC[C@@H](O)CC2)cs1 and write its reported log10 IC50.
3.18

Read the entry Cn1ccc(-c2cnc(Nc3ccnc(-c4cnn(S(=O)(=O)C5CC5)c4)n3)cc2N[C@H]2CC[C@@H](N(C)C)CC2)n1 and write its reported log10 IC50.
2.90

Read the entry CN(C)C[C@H]1CC[C@@H](Nc2cc(Nc3ccnc(-c4cnn(S(=O)(=O)C5CC5)c4)n3)ncc2-c2ccn(CC(F)(F)F)n2)CC1 and write its reported log10 IC50.
2.31

Read the entry C[C@]1(O)CC[C@@H](Nc2cc(Nc3ccnc(-c4cnn(S(=O)(=O)C5CC5)c4)n3)ncc2-c2cn3c(n2)CCC3)CC1 and write its reported log10 IC50.
3.69

Read the entry CN(C)CCNC1CCC(Nc2cc(Nc3ccnc(-c4cnn(S(=O)(=O)C5CC5)c4)n3)ncc2-c2ccn(C(F)F)n2)CC1 (stereo not shown) and write its reported log10 IC50.
2.79

Read the entry CN(C)C[C@H]1C[C@@H](CNc2cc(Nc3ccnc(-c4cnn(S(=O)(=O)C5CC5)c4)n3)ncc2-c2ccn(C(F)F)n2)C1 and write its reported log10 IC50.
3.47

Read the entry CN[C@H]1CC[C@H](CNc2cc(Nc3ccnc(-c4cnn(S(=O)(=O)C5CC5)c4)n3)ncc2-c2ccn(C(F)F)n2)CC1 and write its reported log10 IC50.
3.31
